- assay-comment: Cell Viability - LYMP2-012 (AID 982);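 note: cellular ATP by luciferase luminescence where a drop means cytotoxicity; cells exposed to compound for one day before reading; nearly all actives have a fitted effect of over 55% in size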
- reported-conditions: LYMP2-012 lymphoblastoid cell viability qHTS; series mostly up to 92.2 µM
Records with an inconclusive call do not appear. Calls of active or inactive are those of the source. Calls come from the whole dose curve; as a rule, active = well fitted cell-killing curve with a large enough effect; inconclusive = small, poorly fitted or top-dose-only effect; inactive = flat fitted curve, though single readings scatter.
Classes to choose from: YES (active), NO (inactive)

Examples with answers:
chemical-string	class-label
Cc1ccnc2c1NC(=O)c1cccnc1N2C1CC1	NO
C[C@]12C=CC(=O)C=C1CC[C@@H]1[C@@H]2C(=O)C[C@@]2(C)[C@H]1CC[C@]2(O)C(=O)CO	NO
O=C(O)c1cc(=O)[nH]c(=O)[nH]1	NO
CC[C@H](C)C(=O)O[C@H]1C[C@@H](C)C=C2C=C[C@H](C)[C@H](CC[C@@H]3C[C@@H](O)CC(=O)O3)[C@H]21	NO
CN(C)c1ccc(C(=C2C=CC(=[N+](C)C)C=C2)c2ccc(N(C)C)cc2)cc1	YES
NNC(=O)c1ccncc1	NO
CCc1cc(C(N)=S)ccn1	NO

Please examine the following record next.
input: Which outcome was assigned to CC1=NN(c2ccccc2)C(=O)C1 in this test?
output: NO

* * *

- assay-comment: qHTS of pediatric cancer cell lines to identify multiple opportunities for drug repurposing: Primary screen for BT-12 cells (AID 1347101); note: nearly all actives have a fitted effect of over 25% in size
- reported-conditions: BT-12 viability, CellTiter-Glo luminescence, 48 h; series mostly up to 57.3 µM
Results filed as inconclusive are left out. Calls of active or inactive are those of the source. Calls follow the shape of the dose curve; as a rule, active = well fitted cell-killing curve with a large enough effect; inconclusive = small, poorly fitted or top-dose-only effect; inactive = flat fitted curve, though single readings scatter.
Select the matching outcome among 1 for active, 0 for inactive

compound	class-label
CC(C)OC(=O)C(C(=O)OC(C)C)=C1SC=CS1	0
Cn1c(=O)c2c(ncn2CC(O)CO)n(C)c1=O (configuration not stated)	0

input: Tell me the recorded outcome of this test for Cn1nnc2c(C(N)=O)ncn2c1=O .
output: 0

input: # outcome recorded in this test, key = COc1nc(N)nc2c1ncn2[C@@H]1O[C@H](CO)[C@@H](O)[C@@H]1O
output: 0

input: Hi, do you know how Cc1cc(NS(=O)(=O)c2ccc(N)cc2)no1 came out in this test?
output: 0

input: I would be grateful if you could indicate the recorded call for COc1ncnc(NS(=O)(=O)c2ccc(N)cc2)c1OC .
output: 0

input: Kindly provide the recorded test outcome for the following compound: O=c1cc(O)c(Cl)c[nH]1
output: 0

input: What outcome does the record of this test show for CN(CCOc1ccc(CC2SC(=O)NC2=O)cc1)c1ccccn1 (configuration not stated) ?
output: 0

input: Test call for this compound, please: CC(C)NCC(O)c1ccc(NS(C)(=O)=O)cc1 (configuration not stated)
output: 0

input: Just curious, what result did NCCCC(O)(P(=O)(O)O)P(=O)(O)O get here?
output: 0

input: Called result for O=C(O)CCn1c2c(c3ccccc31)C[C@H](NS(=O)(=O)c1ccc(F)cc1)CC2
output: 0

input: What did the test return for Nc1nc(N)c2nc(CNc3ccc(C(=O)NC(CCC(=O)O)C(=O)O)cc3)cnc2n1 (configuration not stated) ?
output: 1

* * *

- assay-comment: qHTS profiling for inhibitors of Plasmodium falciparum (DD2) proliferation (AID 743323)
- reported-conditions: lower = more inhibition; at 28.7 µM (top of the series)
measurement-label: activity, percent of control (%)
Answers are plain numbers, in %.

compound	activity, percent of control (%)
CCCCS(=N)(=O)CCC(N)C(=O)O (stereo not given)	31.7

Okay, here is my list. What is activity, percent of control for each of these?
1. CC1=CC(=O)c2ccccc2C1=O
2. CC(C)C[C@H](NC(=O)[C@H](CCc1ccccc1)NC(=O)CN1CCOCC1)C(=O)N[C@@H](Cc1ccccc1)C(=O)N[C@@H](CC(C)C)C(=O)[C@@]1(C)CO1
3. O=C(O)c1cn(C2CC2)c2cc(N3CCNCC3)c(F)cc2c1=O

output:
1. 0.841
2. -1.29
3. 90.7

input: Bench note: what activity, percent of control did COc1ncnc(NS(=O)(=O)c2ccc(N)cc2)c1OC show?
output: 85.3
